- Target entity: T1, 4H3427-AA
- T1 chain: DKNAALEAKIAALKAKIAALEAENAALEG
- Assay comment: two-hybrid library CCmax;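 further: natural log of median RNA to DNA barcode read ratio; higher means stronger binding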
- Cond: mean of both orientations

{"Binder": "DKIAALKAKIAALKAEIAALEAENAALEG [4H2883-AA]", "interaction score": -0.335}
{"Binder": "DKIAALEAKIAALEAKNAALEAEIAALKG [4H2354-AA]", "interaction score": -1.67}
{"Binder": "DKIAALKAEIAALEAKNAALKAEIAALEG [4H2617-AA]", "interaction score": -0.774}
{"Binder": "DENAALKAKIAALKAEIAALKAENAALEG [4H1867-AA]", "interaction score": -1.26}
{"Binder": "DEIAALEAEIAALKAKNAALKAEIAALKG [4H122-AA]", "interaction score": -0.449}
{"Binder": "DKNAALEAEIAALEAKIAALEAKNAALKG [4H3112-AA]", "interaction score": 2.07}
{"Binder": "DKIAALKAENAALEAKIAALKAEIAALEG [4H2729-AA]", "interaction score": -1.33}
